Reported pIC50 is given for each of the following compounds.
target.system: full-length beta-Catenin (Uniprot ID P35222) (Homo sapiens, UniProt P35222)
Construct: 10 nM full-length beta-Catenin (Uniprot ID P35222)
Sequence (P35222 whole entry): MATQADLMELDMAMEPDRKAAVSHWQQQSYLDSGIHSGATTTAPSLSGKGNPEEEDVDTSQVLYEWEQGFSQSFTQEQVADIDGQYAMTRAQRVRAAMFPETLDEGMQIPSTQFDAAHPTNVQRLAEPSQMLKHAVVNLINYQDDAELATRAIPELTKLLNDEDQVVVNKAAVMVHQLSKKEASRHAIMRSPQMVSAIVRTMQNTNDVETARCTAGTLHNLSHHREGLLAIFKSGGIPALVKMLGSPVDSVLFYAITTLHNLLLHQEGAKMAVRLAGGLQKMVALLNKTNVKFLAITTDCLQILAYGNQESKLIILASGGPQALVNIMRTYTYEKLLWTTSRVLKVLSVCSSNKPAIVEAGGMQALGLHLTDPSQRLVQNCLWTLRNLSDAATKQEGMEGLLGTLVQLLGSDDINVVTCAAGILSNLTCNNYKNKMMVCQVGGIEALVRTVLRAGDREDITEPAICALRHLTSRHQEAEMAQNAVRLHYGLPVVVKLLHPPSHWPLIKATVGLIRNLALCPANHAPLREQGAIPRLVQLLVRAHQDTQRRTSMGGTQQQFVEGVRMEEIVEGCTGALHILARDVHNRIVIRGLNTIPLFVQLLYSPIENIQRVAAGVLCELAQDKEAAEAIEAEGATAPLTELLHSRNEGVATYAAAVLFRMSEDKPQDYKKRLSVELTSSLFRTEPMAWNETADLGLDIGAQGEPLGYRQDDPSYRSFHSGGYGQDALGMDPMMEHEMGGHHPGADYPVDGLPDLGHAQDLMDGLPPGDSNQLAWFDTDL
assay.overview: Fluorescence polarization IC50 (beta-catenin / 5FAM-TCF4 10-53 competition)
Type: binding
assay.setup: fluorescence polarization; read-out: beta-Catenin FP IC50
As a rule, pIC50 stands for the negative log10 of the concentration, concentration in M.

Value of measured pIC50 for the entry CC(=O)N1CCC[C@]12CC=CCCCC1(CCCC=CCCCOC(=O)N3CC[C@@](C(=O)N[C@@H](Cc4ccsc4)C(=O)N[C@@H](Cc4csc5ccccc45)C(=O)N[C@@H](C)C(N)=O)(C3)NC(=O)[C@H](CC(C)C)NC(=O)[C@H](Cc3ccccc3)NC(=O)[C@H](C)NC(=O)[C@H](CO)NC(=O)[C@H](Cc3cccc(C(=O)O)c3)NC(=O)[C@H](CC(=O)O)NC1=O)NC(=O)[C@H](CC(C)(C)C)NC(=O)[C@H](CC(=O)O)NC2=O (stereo partly drawn) : 8.05

Value of measured pIC50 for the entry CC(=O)N1CCC[C@]12CC=CCCCC1(CCCC=CCCCOC(=O)N3CC[C@@](C(=O)N[C@@H](Cc4ccccc4Cl)C(=O)N[C@@H](Cc4csc5ccccc45)C(=O)N[C@@H](CCC(N)=O)C(N)=O)(C3)NC(=O)[C@H](CCCCNC(C)C)NC(=O)[C@H](Cc3ccccc3)NC(=O)[C@H](C)NC(=O)[C@H](C)NC(=O)[C@H](CCC(=O)O)NC(=O)[C@H](CC(=O)O)NC1=O)NC(=O)[C@H](CC(C)(C)C)NC(=O)[C@H](CC(=O)O)NC2=O (stereo partly drawn) : 8.00

Value of measured pIC50 for the entry CC(=O)N1CCC[C@]12CC=CCCCC1(CCCC=CCCCOC(=O)N3CC[C@@](C(=O)N[C@@H](Cc4ccccc4C(F)(F)F)C(=O)N[C@@H](Cc4csc5ccccc45)C(=O)N[C@@H](CCC(N)=O)C(=O)N[C@@H](CC(C)C)C(=O)N[C@@H](CCC(N)=O)C(N)=O)(C3)NC(=O)[C@H](CC(C)C)NC(=O)[C@H](Cc3ccccc3)NC(=O)[C@H](C)NC(=O)[C@H](C)NC(=O)[C@H](Cc3cccc(C(=O)O)c3)NC(=O)[C@H](CC(=O)O)NC1=O)NC(=O)[C@H](CC(C)(C)C)NC(=O)[C@H](CC(=O)O)NC2=O (stereo partly drawn) : 7.43

====

target.system: full-length beta-Catenin (Uniprot ID P35222) (Homo sapiens)
Construct: 10 nM full-length beta-Catenin (Uniprot ID P35222)
assay.overview: Fluorescence polarization IC50 (beta-catenin / 5FAM-TCF4 10-53 competition)
Type: binding
assay.setup: fluorescence polarization; read-out: beta-Catenin FP IC50
Reported pIC50 is given for each of the following compounds.
As a rule, pIC50 stands for the negative log10 of the concentration, concentration in M.

{"compound": "CCCC[C@@H]1NC(=O)[C@H](C)NC(=O)[C@H](C)NC(=O)[C@H](CCC(=O)O)NC(=O)[C@H](CC(=O)O)NC(=O)C2(CCCC=CCCCCCC[C@@](C)(C(=O)N[C@@H](Cc3ccccc3)C(=O)N[C@@H](Cc3csc4ccccc34)C(=O)N[C@@H](CCC(N)=O)C(N)=O)NC(=O)[C@H](CCC(N)=O)NC1=O)CCCC=CC[C@]1(CCCN1C(C)=O)C(=O)N[C@@H](CC(=O)O)C(=O)N[C@@H]([C@@H](C)CC)C(=O)N2 (some centres unmarked)", "target.system": "full-length beta-Catenin (Uniprot ID P35222) (Homo sapiens)", "pIC50": 6.54}

Value of measured pIC50 for the entry CC(=O)N1CCC[C@]12CC=CCCCC1(CCCC=CCCCOC(=O)N3CC[C@@](C(=O)N[C@@H](Cc4ccsc4)C(=O)N[C@@H](Cc4csc5ccccc45)C(=O)N[C@H](C(N)=O)C(C)C)(C3)NC(=O)[C@H](CC(C)C)NC(=O)[C@H](Cc3ccccc3)NC(=O)[C@H](C)NC(=O)[C@H](C)NC(=O)[C@H](CC(=O)O)NC(=O)[C@H](CC(=O)O)NC1=O)NC(=O)[C@H](CC(C)(C)C)NC(=O)[C@H](CC(=O)O)NC2=O (some centres unmarked) : 7.62

Value of measured pIC50 for the entry CC(=O)N1CCC[C@]12CC=CCCCC1(CCCC=CCCCOC(=O)N3CC[C@@](C(=O)N[C@@H](Cc4ccccc4)C(=O)N[C@@H](Cc4csc5ccccc45)C(=O)N[C@@H](CCC(N)=O)C(N)=O)(C3)NC(=O)[C@H](Cc3c[nH]cn3)NC(=O)[C@H](Cc3ccccc3)NC(=O)[C@H](C)NC(=O)[C@H](C)NC(=O)[C@H](CCC(N)=O)NC(=O)[C@H](CC(=O)O)NC1=O)NC(=O)[C@H](CC(C)(C)C)NC(=O)[C@H](CC(N)=O)NC2=O (some centres unmarked) : 6.44

Value of measured pIC50 for the entry CC(=O)N1CCC[C@]12CC=CCCCC1(CCCC=CCCCOC(=O)N3CC[C@@](C(=O)N[C@@H](Cc4ccsc4)C(=O)N[C@@H](Cc4csc5ccccc45)C(=O)N[C@@H](C)C(N)=O)(C3)NC(=O)[C@H](CC(C)C)NC(=O)[C@H](Cc3ccccc3)NC(=O)[C@@H](C)NC(=O)[C@H](C)NC(=O)[C@H](Cc3cccc(C(=O)O)c3)NC(=O)[C@H](CC(=O)O)NC1=O)NC(=O)[C@H](CC(C)(C)C)NC(=O)[C@H](CC(=O)O)NC2=O (some centres unmarked) [I-2097] : 7.64

Value of measured pIC50 for the entry CC(=O)N1CCC[C@H]1C(=O)N[C@@H](CC(=O)O)C(=O)N[C@@H](CC(C)(C)C)C(=O)N[C@]1(C)CCCCC=CCCCOC(=O)N2CC[C@@](C(=O)N[C@@H](Cc3ccsc3)C(=O)N[C@@H](Cc3csc4ccccc34)C(=O)N[C@@H](CCC(N)=O)C(N)=O)(C2)NC(=O)[C@H](CC(C)C)NC(=O)[C@H](Cc2ccccc2)NC(=O)[C@H](C)NC(=O)[C@H](C)NC(=O)[C@H](CC(=O)O)NC(=O)[C@H](CC(=O)O)NC1=O : 6.51

====

Reported chromatographic logD is given for each of the following compounds.
assay.overview: CHI Log D procedure
Type: physicochemical
assay.setup: pH 7.4, CHI Log D
Give the value as a plain number.

{"compound": "CC(=O)N1CCC[C@]12CC=CCCCC1(CCCC=CCCCCCC[C@@](C)(C(=O)N[C@@H](Cc3cccc(F)c3)C(=O)N[C@@H](Cc3csc4ccccc34)C(=O)N[C@@H](CCC(N)=O)C(N)=O)NC(=O)[C@H](CCC(N)=O)NC(=O)[C@H](Cc3cccs3)NC(=O)[C@H](C)NC(=O)[C@H](C)NC(=O)[C@H](CCC(=O)O)NC(=O)[C@H](CC(=O)O)NC1=O)NC(=O)[C@H](C)NC(=O)[C@H](CC(=O)O)NC2=O (some centres unmarked) [I-401]", "chromatographic logD": 2.28}

Let us move to another entry and its chromatographic logD.
Value of measured chromatographic logD for the entry CC(=O)N[C@@H](Cc1ccccc1)C(=O)N[C@@H](CC(=O)O)C(=O)N[C@@H](C)C(=O)N[C@]1(C)CCCCCCC=CCOC(=O)N2CC[C@@](C(=O)N[C@@H](Cc3ccccc3C(N)=O)C(=O)N[C@@H](Cc3c[nH]c4ccccc34)C(=O)N[C@@H](CCC(N)=O)C(N)=O)(C2)NC(=O)[C@H](C(C)C)NC(=O)[C@H](Cc2ccccc2)NC(=O)[C@H](C)NC(=O)[C@H](C)NC(=O)[C@H](CC(=O)O)NC(=O)[C@H](CC(=O)O)NC1=O (single isomer, unassigned) [I-105] : 1.03

====

Reported IC50 is given for each of the following compounds.
target.system: full-length beta-Catenin (Uniprot ID P35222) (Homo sapiens, UniProt P35222)
Construct: 10 nM full-length beta-Catenin (Uniprot ID P35222)
assay.overview: Fluorescence polarization IC50 (beta-catenin / 5FAM-TCF4 10-53 competition)
Type: binding
assay.setup: fluorescence polarization; read-out: beta-Catenin FP IC50
Hi! Could you send only the number? It should be in nM, unit omitted.

{"compound": "CC[C@H](C)[C@@H]1NC(=O)[C@H](CC(=O)O)NC(=O)[C@]2(CC=CCCCC3(CCCC=CCCCCCC[C@@](C)(C(=O)N[C@@H](Cc4ccccc4)C(=O)N[C@@H](Cc4csc5ccccc45)C(=O)N[C@@H](CCC(N)=O)C(N)=O)NC(=O)[C@H](CC(N)=O)NC(=O)[C@H](Cc4ccccc4)NC(=O)[C@H](C)NC(=O)[C@H](C)NC(=O)[C@H](CN(CC(=O)O)CC(F)(F)F)NC(=O)[C@H](CC(=O)O)NC3=O)NC1=O)CCCN2C(C)=O (some centres unmarked) [I-699]", "measured.value": 43}

Value of measured IC50 for the entry CC(=O)N1CCC[C@]12CC=CCCCC1(CCCC=CCCCOC(=O)N3CC[C@@](C(=O)N[C@@H](Cc4ccsc4)C(=O)N[C@@H](Cc4csc5ccccc45)C(=O)N[C@@H](CO)C(=O)N[C@@H](C)C(N)=O)(C3)NC(=O)[C@H](CO)NC(=O)[C@H](Cc3ccccc3)NC(=O)[C@H](C)NC(=O)C(C)(C)NC(=O)[C@H](Cc3cccc(C(=O)O)c3)NC(=O)[C@H](CC(=O)O)NC1=O)NC(=O)[C@H](CC(C)(C)C)NC(=O)[C@H](CC(=O)O)NC2=O (some centres unmarked) [I-2577] : 7

Where do these numbers come from? They come from patent US20240116985A1.
